target: Acetylcholinesterase (Homo sapiens)
Sequence (P22303 whole entry): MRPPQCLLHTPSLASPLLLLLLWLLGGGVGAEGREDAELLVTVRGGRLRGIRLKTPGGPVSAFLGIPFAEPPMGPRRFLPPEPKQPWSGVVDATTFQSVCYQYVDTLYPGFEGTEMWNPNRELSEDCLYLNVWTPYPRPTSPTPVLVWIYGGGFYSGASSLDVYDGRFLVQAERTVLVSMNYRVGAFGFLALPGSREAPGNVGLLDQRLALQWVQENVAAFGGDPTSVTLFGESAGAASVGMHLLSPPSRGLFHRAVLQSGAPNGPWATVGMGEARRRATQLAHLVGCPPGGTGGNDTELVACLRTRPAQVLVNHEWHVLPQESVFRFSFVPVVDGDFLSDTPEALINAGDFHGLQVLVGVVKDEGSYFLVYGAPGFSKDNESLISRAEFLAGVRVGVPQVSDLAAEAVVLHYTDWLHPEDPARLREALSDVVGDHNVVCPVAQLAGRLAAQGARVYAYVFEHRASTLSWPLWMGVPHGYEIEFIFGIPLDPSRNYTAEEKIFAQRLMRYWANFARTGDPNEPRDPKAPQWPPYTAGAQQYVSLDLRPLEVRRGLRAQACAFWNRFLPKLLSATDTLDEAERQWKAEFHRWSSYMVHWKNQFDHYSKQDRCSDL
Criterion: IC50 strictly less than 200 nM. Met: Met. Not met: Not met.

A record lists CC[N+](C)(CCCCCC(=O)N(C)CCCCCCCCN(C)C(=O)CCCCC[N+](C)(CC)Cc1ccccc1C(F)(F)F)Cc1ccccc1C(F)(F)F (stereo not given) . Is its IC50 below 200 nM?
Met

What do we get for CCN(CCCCCC(=O)N(C)CCCCCCCCN(C)C(=O)CCCCCN(CC)Cc1ccccc1[N+](=O)[O-])Cc1ccccc1[N+](=O)[O-] ?
Not met

What do we get for CC[N+](C)(CCCCCC(=O)N(C)CCCCCCCCN(C)C(=O)CCCCC[N+](C)(CC)Cc1ccccc1[N+](=O)[O-])Cc1ccccc1[N+](=O)[O-] (stereo not given) ?
Met

* * *

target: Cholinesterase (Homo sapiens, UniProt P06276)
Sequence (P06276 whole entry): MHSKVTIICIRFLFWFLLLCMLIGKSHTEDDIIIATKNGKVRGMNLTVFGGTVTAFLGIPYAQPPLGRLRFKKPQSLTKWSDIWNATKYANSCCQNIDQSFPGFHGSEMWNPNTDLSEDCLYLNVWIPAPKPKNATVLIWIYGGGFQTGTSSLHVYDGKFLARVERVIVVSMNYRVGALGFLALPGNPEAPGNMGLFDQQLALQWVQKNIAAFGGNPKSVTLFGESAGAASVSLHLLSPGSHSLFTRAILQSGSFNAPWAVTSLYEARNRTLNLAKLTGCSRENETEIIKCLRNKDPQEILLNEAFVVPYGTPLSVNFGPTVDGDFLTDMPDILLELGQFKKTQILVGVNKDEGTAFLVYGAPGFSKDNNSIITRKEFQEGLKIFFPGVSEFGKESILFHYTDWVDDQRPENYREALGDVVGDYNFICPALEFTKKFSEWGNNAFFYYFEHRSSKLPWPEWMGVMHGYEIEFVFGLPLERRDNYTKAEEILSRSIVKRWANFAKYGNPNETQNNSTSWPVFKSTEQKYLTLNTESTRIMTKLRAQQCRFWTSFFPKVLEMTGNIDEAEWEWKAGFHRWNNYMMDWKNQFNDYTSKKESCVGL
Value type: pIC50
Please report pIC50 as the negative decimal logarithm of the molar concentration, giving only the number.

Some solved cases for reference:
- Compound: "CC[N+](C)(CCCCCC(=O)N(C)CCCCCCCCN(C)C(=O)CCCCC[N+](C)(CC)Cc1ccccc1OC)Cc1ccccc1OC (stereo not drawn)"
  Number: 5.85
- Compound: "CCN(CCCCCC(=O)N(CCCCCCCCN(C(=O)CCCCCN(CC)Cc1ccccc1OC)C(C)C)C(C)C)Cc1ccccc1OC"
  Number: 5.67
- Compound: "CCN(CCCCCC(=O)N(C)CCCCCCCCN(C)C(=O)CCCCCN(CC)Cc1ccccc1)Cc1ccccc1"
  Number: 5.97

Find the recorded pIC50 belonging to CCN(CCCCCCOCCCCCCCCOCCCCCCN(CC)Cc1ccccc1OC)Cc1ccccc1OC and report it.
5.58

What do we get for CCN(CCCCCC(=O)N(C)CCCCCCCCN(C)C(=O)CCCCCN(CC)Cc1ccccc1[N+](=O)[O-])Cc1ccccc1[N+](=O)[O-] ?
4.26

What do we get for COc1cccc(CN(C)CCCCCC(=O)N(C)CCCCCCCCN(C)C(=O)CCCCCN(C)Cc2cccc(OC)c2)c1 ?
5.08

What do we get for CCN(CCCCCC(=O)N(C)CCCCCCCCN(C)C(=O)CCCCCN(CC)Cc1ccccc1C)Cc1ccccc1C ?
5.13

What do we get for CCN(CCCCCC(=O)N(C)CCCCCCCCN(C)C(=O)CCCCCN(CC)Cc1ccccc1OC)Cc1ccccc1OC ?
5.65

* * *

Each entry below carries its reported IC50.
target: Acetylcholinesterase (Homo sapiens)
Express the result in nM but write the number alone.

Some solved cases for reference:
- Molecule: "CCN(CCCCCC(=O)N(C)CCCCCCCCN(C)C(=O)CCCCCN(CC)Cc1ccccc1[N+](=O)[O-])Cc1ccccc1[N+](=O)[O-]"
  Value type: "IC50"
  Output unit: "nM"
  Number: 79.4
- Molecule: "CC[N+](C)(CCCCCC(=O)N(C)CCCCCCCCN(C)C(=O)CCCCC[N+](C)(CC)Cc1ccccc1OC)Cc1ccccc1OC (centres undefined)"
  Value type: "IC50"
  Output unit: "nM"
  Number: 11

Find the recorded IC50 belonging to CC[N+](C)(CCCCCC(=O)N(C)CCCCCCCCN(C)C(=O)CCCCC[N+](C)(CC)Cc1ccccc1[N+](=O)[O-])Cc1ccccc1[N+](=O)[O-] (centres undefined) and report it.
12.9

What do we get for CCN(CCCCCC(=O)N(C)CCCCCCCCN(C)C(=O)CCCCCN(CC)Cc1ccccc1OC)Cc1ccccc1OC ?
17.4
